Values from PubChem BioAssay

viability: recorded values
# test.description: growth suppression of beta-catenin knockout HCT116, pilot screen, human colon tumor cells (AID 823);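 note: 0% = wells killed by 20 µM Hyamine and 100% = untreated DMSO cell wells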
# study.conditions: CellTiter-Glo, 60 h, at 10 µM, stronger effect = lower value
Records with an inconclusive call do not appear.
Numeric answer only, unit % assumed.

{"compound": "CN(CC(CC(=O)Nc1nncs1)c1ccccc1)S(=O)(=O)c1ccccc1 (stereo unspecified)", "units.symbol": "%", "viability": 96.2}
{"compound": "Cc1ccc(S(=O)(=O)N(C)CCCC(=O)Nc2ccncc2)cc1", "units.symbol": "%", "viability": 79.4}
{"compound": "C=C(C)CSc1nnc(-c2cccc(Cl)c2)n1N", "units.symbol": "%", "viability": 95.9}
{"compound": "O=C(CC12CC3CC(CC(C3)C1)C2)N1CCOCC1", "units.symbol": "%", "viability": 102}
{"compound": "Cc1c(C(=O)NCc2ccc3c(c2)OCO3)oc2ccc(S(=O)(=O)N3CCC(C)CC3)cc12", "units.symbol": "%", "viability": 74.7}

q: Respond only with viability recorded for CCOC(=O)N1CCN(C(=O)CSc2nnc(-c3ccc(C)c(C)c3)o2)CC1
a: 111
